Values from patent US20260365664A1

# System: human cervical cancer HeLa
# EXPERIMENT_SUMMARY: MTT in vitro cell growth inhibition, human cervical cancer HeLa (48 h)
# Assay type: cell-based
# CONDITION_DESCRIPTION: HeLa cells
REPORTED_ENDPOINT: IC50
Put your answer as a value accompanied by its unit after it.

COMPOUND	IC50
COC(=O)C[C@](O)(CCC(F)(F)C(F)(F)F)C(=O)O[C@@H]1C(OC)=C[C@]23CCCN2CCc2cc4c(cc2[C@H]13)OCO4	28 nM

The reported value for COC(=O)C[C@](O)(CCCC(F)(F)F)C(=O)O[C@@H]1C(OC)=C[C@]23CCCN2CCc2cc4c(cc2[C@H]13)OCO4 in terms of IC50 is 25 nM

The reported value for COC(=O)C[C@](O)(CCCC(C)(C)O)C(=O)O[C@@H]1C(OC)=C[C@]23CCCN2CCc2cc4c(cc2[C@H]13)OCO4 [HHT, homoharringtonine, reference compound] in terms of IC50 is 34 nM

* * *

Measured IC50, listed per entry.
# Tested on: hepatocellular carcinoma cell HepG2
# EXPERIMENT_SUMMARY: MTT in vitro cell growth inhibition, hepatocellular carcinoma cell HepG2 (48 h)
# Format: cell-based
# CONDITION_DESCRIPTION: Homo sapiens, HepG2 cells
Your answer is read as nM, so omit the unit and give the number.

# count of solved cases: 5
COMPOUND	IC50 (nM)
COC(=O)C[C@](O)(CCc1cccc(NC(C)=O)c1)C(=O)O[C@@H]1C(OC)=C[C@]23CCCN2CCc2cc4c(cc2[C@H]13)OCO4 [Compound I-2-9]	48
COC(=O)C[C@](O)(CCc1cccc(F)c1F)C(=O)O[C@@H]1C(OC)=C[C@]23CCCN2CCc2cc4c(cc2[C@H]13)OCO4 [Compound I-2-35]	23
COC(=O)C[C@](O)(CCc1cccc(NC(=O)NC2CCCC2)c1)C(=O)O[C@@H]1C(OC)=C[C@]23CCCN2CCc2cc4c(cc2C13)OCO4 (stereo partly drawn) [Compound I-1-2]	14
COC(=O)C[C@](O)(CCc1cccc2ccccc12)C(=O)O[C@@H]1C(OC)=C[C@]23CCCN2CCc2cc4c(cc2[C@H]13)OCO4 [Compound I-2-43]	15
COC(=O)C[C@](O)(CCc1cccc(NC(=O)Nc2ccc(C)cc2)c1)C(=O)O[C@@H]1C(OC)=C[C@]23CCCN2CCc2cc4c(cc2[C@H]13)OCO4 [Compound I-1-1]	25

Tested system hepatocellular carcinoma cell HepG2; IC50 recorded for COC(=O)C[C@](O)(CCCC(C)(C)O)C(=O)O[C@@H]1C(OC)=C[C@]23CCCN2CCc2cc4c(cc2[C@H]13)OCO4 [HHT, homoharringtonine, reference compound] was 22

Tested system hepatocellular carcinoma cell HepG2; IC50 recorded for COC(=O)C[C@](O)(CCc1ccccc1C(F)(F)F)C(=O)O[C@@H]1C(OC)=C[C@]23CCCN2CCc2cc4c(cc2[C@H]13)OCO4 [Compound I-2-38] was 75

Tested system hepatocellular carcinoma cell HepG2; IC50 recorded for COC(=O)C[C@](O)(CCc1ccc(SC)cc1)C(=O)O[C@@H]1C(OC)=C[C@]23CCCN2CCc2cc4c(cc2[C@H]13)OCO4 [Compound I-2-41] was 10

Tested system hepatocellular carcinoma cell HepG2; IC50 recorded for COC(=O)C[C@](O)(CCc1ccc2ccccc2c1)C(=O)O[C@@H]1C(OC)=C[C@]23CCCN2CCc2cc4c(cc2[C@H]13)OCO4 [Compound I-2-44] was 95
